- Measurement Protocol: Clearance in rat liver microsomes in presence of NADPH measured by LC/MS analysis
- Assay type: ADME, Microsome
- Measurement Setup: read-out: CLH

[
  {
    "Compound": "COc1ccc(/C=C/c2cc(OC)cc(OCc3ccc(OCC(=O)O)c(F)c3)c2)cc1",
    "microsomal CLint, µL/min/mg": 27.1
  },
  {
    "Compound": "COc1ccc(/C=C/c2cc(OC)cc(OCCCCCCCC(=O)O)c2)cc1",
    "microsomal CLint, µL/min/mg": 72
  }
]

====

- Measured Target: Peroxisome proliferator-activated receptor gamma (Homo sapiens)
- Sequence (P37231 whole entry): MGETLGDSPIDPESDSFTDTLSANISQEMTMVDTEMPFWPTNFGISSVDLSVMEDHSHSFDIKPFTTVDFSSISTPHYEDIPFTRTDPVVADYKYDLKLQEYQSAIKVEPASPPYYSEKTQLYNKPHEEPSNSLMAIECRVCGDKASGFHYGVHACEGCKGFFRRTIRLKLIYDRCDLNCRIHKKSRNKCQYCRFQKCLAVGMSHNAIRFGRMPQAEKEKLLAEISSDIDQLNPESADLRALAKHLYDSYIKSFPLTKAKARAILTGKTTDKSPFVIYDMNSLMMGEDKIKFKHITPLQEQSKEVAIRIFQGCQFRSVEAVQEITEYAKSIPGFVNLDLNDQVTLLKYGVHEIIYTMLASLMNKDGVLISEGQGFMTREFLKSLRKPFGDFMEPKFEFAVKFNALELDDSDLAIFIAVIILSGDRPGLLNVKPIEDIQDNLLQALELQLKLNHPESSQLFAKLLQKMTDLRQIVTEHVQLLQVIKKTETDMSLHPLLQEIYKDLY
- Measurement Protocol: Agonist activity at human PPARgamma measured by dual luciferase reporter gene assay
Measured EC50 accompanies every entry in the list below.

[
  {
    "Compound": "COc1ccc(/C=C/c2cc(OC)cc(OCCCCCCCC(=O)O)c2)cc1",
    "EC50 [µM]": 25.8
  },
  {
    "Compound": "COc1ccc(/C=C/c2cc(OC)cc(OCc3ccc(OCC(=O)O)cc3)c2)cc1",
    "EC50 [µM]": 15.6
  },
  {
    "Compound": "CCOc1ccc(/C=C/c2cc(OCC)cc(OCc3ccc(OCC(=O)O)c(F)c3)c2)cc1",
    "EC50 [µM]": 22.6
  },
  {
    "Compound": "COc1ccc(/C=C/c2cc(OC)cc(OCc3ccc(OC(C)(C)C(=O)O)c(F)c3)c2)cc1",
    "EC50 [µM]": 20.6
  },
  {
    "Compound": "Cc1ccc2[nH]c(-c3cccc(OCCCCCCCC(=O)O)c3)nc2c1",
    "EC50 [µM]": 10.2
  },
  {
    "Compound": "COc1ccc(/C=C/c2cc(OC)cc(OCc3ccc(OCC(=O)O)c(C)c3)c2)cc1",
    "EC50 [µM]": 20.7
  },
  {
    "Compound": "COc1ccc(/C=C/c2cc(OC)cc(OCc3ccc(OCC(=O)O)c(F)c3)c2)cc1",
    "EC50 [µM]": 28.5
  },
  {
    "Compound": "COc1ccc(/C=C/c2cc(OC)cc(OCc3ccc(OC(C)C(=O)O)c(F)c3)c2)cc1 (centres undefined)",
    "EC50 [µM]": 18.2
  },
  {
    "Compound": "O=C(O)COc1ccc(COc2cc(/C=C/c3ccc(OCC4CC4)cc3)cc(OCC3CC3)c2)cc1F",
    "EC50 [µM]": 24.5
  }
]

====

- Measured Target: Peroxisome proliferator-activated receptor alpha (Homo sapiens)
- Sequence (Q07869 whole entry): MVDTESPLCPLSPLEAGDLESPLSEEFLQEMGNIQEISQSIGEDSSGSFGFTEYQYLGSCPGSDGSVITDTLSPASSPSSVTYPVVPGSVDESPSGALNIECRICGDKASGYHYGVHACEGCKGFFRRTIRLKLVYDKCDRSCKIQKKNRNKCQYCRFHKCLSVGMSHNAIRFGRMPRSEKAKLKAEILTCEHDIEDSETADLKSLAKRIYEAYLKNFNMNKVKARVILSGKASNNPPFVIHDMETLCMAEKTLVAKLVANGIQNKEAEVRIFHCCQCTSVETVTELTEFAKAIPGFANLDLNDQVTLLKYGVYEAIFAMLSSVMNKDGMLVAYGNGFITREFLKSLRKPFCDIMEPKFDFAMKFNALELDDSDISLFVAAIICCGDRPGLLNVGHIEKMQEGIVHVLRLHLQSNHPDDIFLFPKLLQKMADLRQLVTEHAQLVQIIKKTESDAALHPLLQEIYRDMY
- Measurement Protocol: Agonist activity at human PPARalpha measured by dual luciferase reporter gene assay

[
  {
    "Compound": "COc1ccc(/C=C/c2cc(OC)cc(OCc3ccc(OC(C)C(=O)O)c(F)c3)c2)cc1 (centres undefined)",
    "EC50 [µM]": 8.72
  },
  {
    "Compound": "Cc1ccc2[nH]c(-c3cccc(OCCCCCCCC(=O)O)c3)nc2c1",
    "EC50 [µM]": 6.3
  },
  {
    "Compound": "COc1ccc(/C=C/c2cc(OC)cc(OCc3ccc(OC(C)(C)C(=O)O)c(F)c3)c2)cc1",
    "EC50 [µM]": 2.35
  },
  {
    "Compound": "COc1ccc(/C=C/c2cc(OC)cc(OCc3ccc(OCC(=O)O)cc3)c2)cc1",
    "EC50 [µM]": 20.8
  },
  {
    "Compound": "O=C(O)COc1ccc(COc2cccc(-c3nc4cc(Cl)ccc4o3)c2)cc1F",
    "EC50 [µM]": 10.8
  },
  {
    "Compound": "O=C(O)COc1ccc(COc2cccc(-c3ccc4cc(OCC5CC5)ccc4c3)c2)cc1F",
    "EC50 [µM]": 9.6
  },
  {
    "Compound": "CCOc1ccc(/C=C/c2cc(OCC)cc(OCc3ccc(OCC(=O)O)c(F)c3)c2)cc1",
    "EC50 [µM]": 12.9
  },
  {
    "Compound": "COc1ccc(/C=C/c2cc(OC)cc(OCc3ccc(OCC(=O)O)c(F)c3)c2)cc1",
    "EC50 [µM]": 8.5
  },
  {
    "Compound": "COc1ccc(/C=C/c2cc(OC)cc(OCc3ccc(OCC(=O)O)c(C)c3)c2)cc1",
    "EC50 [µM]": 7.6
  },
  {
    "Compound": "COc1ccc2cc(-c3cccc(OCc4ccc(OCC(=O)O)c(F)c4)c3)ccc2c1",
    "EC50 [µM]": 10.5
  },
  {
    "Compound": "O=C(O)COc1ccc(COc2cccc(-c3nc4ccccc4s3)c2)cc1F",
    "EC50 [µM]": 7.8
  },
  {
    "Compound": "COc1ccc(/C=C/c2cc(OC)cc(OCCCCCCCC(=O)O)c2)cc1",
    "EC50 [µM]": 7.5
  },
  {
    "Compound": "O=C(O)COc1ccc(COc2cc(/C=C/c3ccc(OCC4CC4)cc3)cc(OCC3CC3)c2)cc1F",
    "EC50 [µM]": 10.3
  },
  {
    "Compound": "COc1ccc2ccc(-c3cccc(OCc4ccc(OCC(=O)O)c(F)c4)c3)cc2c1",
    "EC50 [µM]": 15.6
  }
]

Provenance of the data: ChEMBL document CHEMBL5154671
